Across several studies, compounds have been characterized by their IC50 on Poly [ADP-ribose] polymerase tankyrase-1 (Homo sapiens, UniProt O95271); a selection follows.
One number for each entry, in µM.

>  <compound>
Cn1ccc2c(=O)[nH]c(N3CCN(c4nccnc4C#N)CC3)nc21

>  <readout.unit>
µM

>  <readout.number>
0.111

$$$$
>  <compound>
Cn1ccc2c(=O)[nH]c(N3CC(C)(c4ccccc4)C3)nc21

>  <readout.unit>
µM

>  <readout.number>
0.108

$$$$

Please look at the items below and tell me IC50 for each one, in order.
1. COC1CN(C(=O)c2nc[nH]c2C(=O)N[C@H]2CC[C@H](C(=O)Nc3ccc(F)cc3Cl)CC2)C1
2. CC(C)C1Cc2[nH]c(=O)c3sccc3c2CO1 (racemic)

0.021
0.0703
